assaySystem: HDAC1 (Homo sapiens)
Construct: purchased BPS Bioscience 50051
Sequence (Q13547 whole entry): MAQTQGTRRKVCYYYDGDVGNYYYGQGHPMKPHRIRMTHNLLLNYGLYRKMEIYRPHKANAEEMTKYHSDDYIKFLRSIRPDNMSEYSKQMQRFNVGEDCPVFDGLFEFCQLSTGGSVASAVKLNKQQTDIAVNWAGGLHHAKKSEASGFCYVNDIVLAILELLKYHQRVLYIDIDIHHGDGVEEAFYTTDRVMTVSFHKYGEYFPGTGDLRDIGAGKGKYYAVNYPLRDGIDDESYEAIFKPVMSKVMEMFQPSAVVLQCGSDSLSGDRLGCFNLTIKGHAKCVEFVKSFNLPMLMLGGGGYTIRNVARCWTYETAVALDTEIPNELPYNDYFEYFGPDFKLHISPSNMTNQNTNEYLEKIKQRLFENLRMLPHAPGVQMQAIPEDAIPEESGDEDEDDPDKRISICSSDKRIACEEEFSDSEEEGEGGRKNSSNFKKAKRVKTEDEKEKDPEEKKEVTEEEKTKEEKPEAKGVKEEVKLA
experiment: HDAC-Glo I/II assay, HDAC1
Type: biochemical
measurementSetup: recombinant human HDAC1, HDAC-Glo; read-out: pIC50 HDAC1 Glo (converted)
reportedEndpoint: IC50 (µM)
Answer format: numeric, µM implied, no suffix.

Query string: IC50 lookup needed for CN(CCCC(=O)NO)CCc1nc2ccccc2[nH]1 , thanks.
Result string: 10

Query string: IC50 lookup needed for CN(CCCC(=O)NO)CCNC(=O)c1ccc(O)c2ccccc12 , thanks.
Result string: 7.94

Query string: IC50 lookup needed for CN(CCCC(=O)NO)CCNC(=O)c1ccc(/C(N)=N/O)cc1 , thanks.
Result string: 15.8

Query string: IC50 lookup needed for CN(CCCNC(=O)c1ccccc1)CCCC(=O)NO , thanks.
Result string: 50.1

Query string: IC50 lookup needed for O=C(CC1CN(CCC(=O)Nc2ccccc2)C1)NO , thanks.
Result string: 50.1

Query string: IC50 lookup needed for CCCCN(CCCC(=O)NO)CCC(=O)Nc1ccccc1 , thanks.
Result string: 79.4

Query string: IC50 lookup needed for CN(CCCC(=O)NO)CCCC(=O)Nc1ccccc1 , thanks.
Result string: 50.1

Query string: IC50 lookup needed for CN(CCCC(=O)NO)CCNC(=O)c1ccc(O)cc1 , thanks.
Result string: 15.8

Query string: IC50 lookup needed for CN(CCCC(=O)NO)CCNC(=O)c1cccc(N)c1 , thanks.
Result string: 25.1

Query string: IC50 lookup needed for O=C(CCCN(CCC(=O)Nc1ccccc1)Cc1ccccc1)NO , thanks.
Result string: 25.1

Query string: IC50 lookup needed for CC(C)N(CCCC(=O)NO)CCC(=O)Nc1ccccc1 , thanks.
Result string: 398

* * *

assaySystem: TwinStrep-GST-HDAC10 (Homo sapiens, UniProt Q969S8)
Construct: made in house; host or cells: Sf21 insect cells (baculovirus, pFastBac1)
Sequence (Q969S8 whole entry): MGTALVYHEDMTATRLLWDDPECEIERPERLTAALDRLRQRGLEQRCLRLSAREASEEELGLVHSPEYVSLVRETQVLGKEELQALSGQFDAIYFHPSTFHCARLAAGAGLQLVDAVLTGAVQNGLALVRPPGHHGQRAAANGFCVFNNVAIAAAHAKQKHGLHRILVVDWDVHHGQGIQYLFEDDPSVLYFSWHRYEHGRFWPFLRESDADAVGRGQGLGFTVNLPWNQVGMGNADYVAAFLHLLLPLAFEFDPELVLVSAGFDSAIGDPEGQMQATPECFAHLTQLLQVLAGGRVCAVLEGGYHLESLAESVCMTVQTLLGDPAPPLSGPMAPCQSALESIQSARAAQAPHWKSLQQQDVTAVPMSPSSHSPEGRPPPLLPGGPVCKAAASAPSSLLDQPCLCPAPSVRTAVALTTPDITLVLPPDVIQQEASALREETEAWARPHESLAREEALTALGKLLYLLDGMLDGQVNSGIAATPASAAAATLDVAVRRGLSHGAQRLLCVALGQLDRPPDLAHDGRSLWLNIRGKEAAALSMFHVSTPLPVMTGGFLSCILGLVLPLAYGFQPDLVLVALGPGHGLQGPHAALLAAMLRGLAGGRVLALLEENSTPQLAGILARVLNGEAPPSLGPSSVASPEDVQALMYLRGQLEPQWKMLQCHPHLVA
experiment: HDAC10 TR-FRET assay (Tubastatin-AF647-Tracer displacement)
Type: binding
measurementSetup: TR-FRET, 60 min at rt; read-out: pIC50 HDAC10 FRET (converted)
reportedEndpoint: IC50
Mention the unit after the number when you answer.

Query string: IC50 lookup needed for CN(CCCC(=O)NO)CCNC(=O)c1ccc(/C(N)=N/O)cc1 [DKFZ-750] , thanks.
Result string: 20 nM

Query string: IC50 lookup needed for O=C(CCCN(CCC(=O)Nc1ccccc1)Cc1ccccc1)NO [DKFZ-718] , thanks.
Result string: 2000 nM

Query string: IC50 lookup needed for CN(CCCNC(=O)c1ccccc1)CCCC(=O)NO [DKFZ-806] , thanks.
Result string: 20 nM

Query string: IC50 lookup needed for CN(CCCC(=O)NO)CCNC(=O)c1cccc2cn[nH]c12 [DKFZ-757] , thanks.
Result string: 7.94 nM

Query string: IC50 lookup needed for CN(CCCC(=O)NO)CCNC(=O)c1ccc2cn[nH]c2c1 [DKFZ-754] , thanks.
Result string: 7.94 nM

Query string: IC50 lookup needed for Cc1[nH]c2ccccc2c1CC(=O)NCCN(C)CCCC(=O)NO [DKFZ-749] , thanks.
Result string: 79.4 nM

Query string: IC50 lookup needed for CN(CCCC(=O)NO)CCNC(=O)c1ccc2ccccc2c1 [DKFZ-769] , thanks.
Result string: 5.01 nM

Query string: IC50 lookup needed for Cc1[nH]c2ccccc2c1C(=O)NCCN(C)CCCC(=O)NO [DKFZ-756] , thanks.
Result string: 20 nM

* * *

assaySystem: HDAC6 (Homo sapiens)
Construct: purchased BPS Bioscience 50006
Sequence (Q9UBN7 whole entry): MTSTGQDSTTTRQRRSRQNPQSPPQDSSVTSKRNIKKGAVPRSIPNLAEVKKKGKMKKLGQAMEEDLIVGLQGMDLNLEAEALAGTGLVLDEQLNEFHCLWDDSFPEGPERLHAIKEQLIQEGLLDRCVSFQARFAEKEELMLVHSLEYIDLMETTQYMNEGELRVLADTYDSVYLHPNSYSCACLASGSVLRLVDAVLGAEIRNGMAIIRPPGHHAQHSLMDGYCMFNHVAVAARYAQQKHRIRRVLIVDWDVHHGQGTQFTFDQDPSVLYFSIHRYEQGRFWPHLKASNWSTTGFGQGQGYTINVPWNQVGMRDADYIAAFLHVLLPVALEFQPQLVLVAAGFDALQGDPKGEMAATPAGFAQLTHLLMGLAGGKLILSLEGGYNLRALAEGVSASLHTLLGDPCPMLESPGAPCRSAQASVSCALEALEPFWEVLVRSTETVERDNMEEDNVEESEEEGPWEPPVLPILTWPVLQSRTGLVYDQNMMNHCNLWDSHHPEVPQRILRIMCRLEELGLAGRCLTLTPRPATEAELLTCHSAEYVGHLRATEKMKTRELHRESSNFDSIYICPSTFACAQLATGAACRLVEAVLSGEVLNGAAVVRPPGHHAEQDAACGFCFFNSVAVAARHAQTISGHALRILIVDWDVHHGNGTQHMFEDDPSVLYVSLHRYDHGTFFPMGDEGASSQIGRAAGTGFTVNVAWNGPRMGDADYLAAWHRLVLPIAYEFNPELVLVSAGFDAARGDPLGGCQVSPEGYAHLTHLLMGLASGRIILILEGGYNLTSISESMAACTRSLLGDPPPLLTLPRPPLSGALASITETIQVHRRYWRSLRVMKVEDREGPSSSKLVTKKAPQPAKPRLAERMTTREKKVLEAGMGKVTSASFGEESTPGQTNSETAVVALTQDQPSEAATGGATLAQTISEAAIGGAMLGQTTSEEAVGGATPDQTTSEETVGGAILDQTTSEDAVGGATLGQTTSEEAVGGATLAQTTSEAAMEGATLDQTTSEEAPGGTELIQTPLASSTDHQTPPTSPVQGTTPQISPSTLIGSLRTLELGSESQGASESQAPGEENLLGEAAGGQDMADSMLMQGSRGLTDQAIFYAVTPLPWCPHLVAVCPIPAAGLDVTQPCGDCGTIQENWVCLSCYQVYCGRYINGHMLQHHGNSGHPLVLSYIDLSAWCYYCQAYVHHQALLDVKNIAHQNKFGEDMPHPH
experiment: HDAC-Glo I/II assay, HDAC6
Assay type: biochemical
measurementSetup: recombinant human HDAC6, HDAC-Glo; read-out: pIC50 HDAC6 Glo (converted)
reportedEndpoint: IC50 (µM)
Answer format: numeric, µM implied, no suffix.

Query string: IC50 lookup needed for CN(CCCC(=O)NO)CCNC(=O)c1ccccc1Br , thanks.
Result string: 6.31

Query string: IC50 lookup needed for CCCN(CCCC(=O)NO)CCC(=O)Nc1ccccc1 , thanks.
Result string: 5.01

Query string: IC50 lookup needed for CN(CCCC(=O)NO)CCNC(=O)c1ccc(/C(N)=N/O)cc1 , thanks.
Result string: 6.31

Query string: IC50 lookup needed for O=C(CC1CN(CCC(=O)Nc2ccccc2)C1)NO , thanks.
Result string: 6.31

Query string: IC50 lookup needed for CN(CCCC(=O)NO)CCNC(=O)c1cccc(N)c1 , thanks.
Result string: 6.31
